System: TTR
Experiment: EC50 and maximum editing in primary human hepatocytes treated with LNP formulated U-depleted Spy Cas9 mRNA and sgRNAs (Tables 19, 21)
Format: cell-based
Set-up: key: % of sequence reads with indels or substitutions over total reads
Details: Table 19, LNP with U-depleted Spy Cas9 mRNA and human specific sgRNAs, dose response
Strand notation (5' to 3'): a small letter for the sugar, then the base; units joined by * are phosphorothioate-linked, units joined directly phosphodiester-linked; [ ] holds rarer units or linkages, { } end groups; capitals alone tell only the bases. m = 2'-O-methyl; r = 2'-OH (RNA)
Provide the reported Max Editing of each item.
Give the figure only, with no unit attached.

The molecule listed as G000490: TTR sgRNA modified sequence, Human, SEQ ID No. 97; guide sequence of CR003366 (nucleic acid) guide: mA*mA*mA*rUrArGrArCrArCrCrArArArUrCrUrUrArCrGrUrUrUrUrArGrAmGmCmUmAmGmAmAmAmUmAmGmCrArArGrUrUrArArArArUrArArGrGrCrUrArGrUrCrCrGrUrUrArUrCrAmAmCmUmUmGmAmAmAmAmAmGmUmGmGmCmAmCmCmGmAmGmUmCmGmGmUmGmCmU*mU*mU*mU has a reported Max Editing of 94.16

The molecule listed as G000481: TTR sgRNA modified sequence, Human, SEQ ID No. 88; guide sequence of CR003345 (nucleic acid) guide: mU*mC*mU*rArGrArArCrUrUrUrGrArCrCrArUrCrArGrGrUrUrUrUrArGrAmGmCmUmAmGmAmAmAmUmAmGmCrArArGrUrUrArArArArUrArArGrGrCrUrArGrUrCrCrGrUrUrArUrCrAmAmCmUmUmGmAmAmAmAmAmGmUmGmGmCmAmCmCmGmAmGmUmCmGmGmUmGmCmU*mU*mU*mU has a reported Max Editing of 87.05

The molecule listed as G000484: TTR sgRNA modified sequence, Human, SEQ ID No. 91; guide sequence of CR003367 (nucleic acid) guide: mA*mG*mA*rCrArCrCrArArArUrCrUrUrArCrUrGrGrArGrUrUrUrUrArGrAmGmCmUmAmGmAmAmAmUmAmGmCrArArGrUrUrArArArArUrArArGrGrCrUrArGrUrCrCrGrUrUrArUrCrAmAmCmUmUmGmAmAmAmAmAmGmUmGmGmCmAmCmCmGmAmGmUmCmGmGmUmGmCmU*mU*mU*mU has a reported Max Editing of 94.14

The molecule listed as G000500: TTR sgRNA modified sequence, Human, SEQ ID No. 107; guide sequence of CR003337 (nucleic acid) guide: mC*mC*mA*rGrUrCrCrArGrCrArArGrGrCrArGrArGrGrGrUrUrUrUrArGrAmGmCmUmAmGmAmAmAmUmAmGmCrArArGrUrUrArArArArUrArArGrGrCrUrArGrUrCrCrGrUrUrArUrCrAmAmCmUmUmGmAmAmAmAmAmGmUmGmGmCmAmCmCmGmAmGmUmCmGmGmUmGmCmU*mU*mU*mU has a reported Max Editing of 88.70

The molecule listed as G000483: TTR sgRNA modified sequence, Human, SEQ ID No. 90; guide sequence of CR005298 (nucleic acid) guide: mU*mC*mC*rArCrUrCrArUrUrCrUrUrGrGrCrArGrGrArGrUrUrUrUrArGrAmGmCmUmAmGmAmAmAmUmAmGmCrArArGrUrUrArArArArUrArArGrGrCrUrArGrUrCrCrGrUrUrArUrCrAmAmCmUmUmGmAmAmAmAmAmGmUmGmGmCmAmCmCmGmAmGmUmCmGmGmUmGmCmU*mU*mU*mU has a reported Max Editing of 77.39

The molecule listed as G000499: TTR sgRNA modified sequence, Human, SEQ ID No. 106; guide sequence of CR005303 (nucleic acid) guide: mU*mG*mA*rArUrCrCrArArGrUrGrUrCrCrUrCrUrGrArGrUrUrUrUrArGrAmGmCmUmAmGmAmAmAmUmAmGmCrArArGrUrUrArArArArUrArArGrGrCrUrArGrUrCrCrGrUrUrArUrCrAmAmCmUmUmGmAmAmAmAmAmGmUmGmGmCmAmCmCmGmAmGmUmCmGmGmUmGmCmU*mU*mU*mU has a reported Max Editing of 96.31

The molecule listed as G000571: TTR sgRNA modified sequence, Human, SEQ ID No. 112; guide sequence of CR005301 (nucleic acid) guide: mG*mU*mC*rArCrArGrArArArCrArCrUrCrArCrCrGrUrGrUrUrUrUrArGrAmGmCmUmAmGmAmAmAmUmAmGmCrArArGrUrUrArArArArUrArArGrGrCrUrArGrUrCrCrGrUrUrArUrCrAmAmCmUmUmGmAmAmAmAmAmGmUmGmGmCmAmCmCmGmAmGmUmCmGmGmUmGmCmU*mU*mU*mU has a reported Max Editing of 71.28

The molecule listed as G000494: TTR sgRNA modified sequence, Human, SEQ ID No. 101; guide sequence of CR003360 (nucleic acid) guide: mG*mU*mG*rArGrUrCrUrGrGrArGrArGrCrUrGrCrArUrGrUrUrUrUrArGrAmGmCmUmAmGmAmAmAmUmAmGmCrArArGrUrUrArArArArUrArArGrGrCrUrArGrUrCrCrGrUrUrArUrCrAmAmCmUmUmGmAmAmAmAmAmGmUmGmGmCmAmCmCmGmAmGmUmCmGmGmUmGmCmU*mU*mU*mU has a reported Max Editing of 75.70

The molecule listed as G000482: TTR sgRNA modified sequence, Human, SEQ ID No. 89; guide sequence of CR003365 (nucleic acid) guide: mU*mG*mU*rArGrArArGrGrGrArUrArUrArCrArArArGrGrUrUrUrUrArGrAmGmCmUmAmGmAmAmAmUmAmGmCrArArGrUrUrArArArArUrArArGrGrCrUrArGrUrCrCrGrUrUrArUrCrAmAmCmUmUmGmAmAmAmAmAmGmUmGmGmCmAmCmCmGmAmGmUmCmGmGmUmGmCmU*mU*mU*mU has a reported Max Editing of 97.02

The molecule listed as G000489: TTR sgRNA modified sequence, Human, SEQ ID No. 96; guide sequence of CR003344 (nucleic acid) guide: mU*mU*mU*rGrArCrCrArUrCrArGrArGrGrArCrArCrUrGrUrUrUrUrArGrAmGmCmUmAmGmAmAmAmUmAmGmCrArArGrUrUrArArArArUrArArGrGrCrUrArGrUrCrCrGrUrUrArUrCrAmAmCmUmUmGmAmAmAmAmAmGmUmGmGmCmAmCmCmGmAmGmUmCmGmGmUmGmCmU*mU*mU*mU has a reported Max Editing of 86.33
